System: ECHCG = Echinochloa crus-galli
Test: Post-emergence herbicidal activity, glasshouse pot test
Assay type: in vivo
Parameters: key: 5=total damage to plant; 0=no damage to plant
Details: comparison of enantiomers, 250 g/Ha
readout-label: ECHCG damage score (0-5)
Give bare numbers.

[
  {
    "compound": "CO[C@@H]1C(O)N(c2cc(C(C)(C)C)on2)C(=O)N1C (some centres unmarked)",
    "ECHCG damage score (0-5)": 5
  }
]

Hello, I would appreciate it if you could give ECHCG damage score (0-5) for each entry below.
1. COC[C@@H]1C(O)N(c2cc(C(C)(C)C)on2)C(=O)N1C (some centres unmarked)
2. COC[C@H]1C(O)N(c2cc(C(C)(C)C)on2)C(=O)N1C (stereo partly drawn) [A4 S-enantiomer, reference compound]
3. CCO[C@@H]1C(O)N(c2cc(C(C)(C)C)on2)C(=O)N1C (single isomer, unassigned)
4. CCO[C@H]1C(O)N(c2cc(C(C)(C)F)on2)C(=O)N1C (stereo partly drawn) [A5 S-enantiomer, reference compound]
5. CCO[C@@H]1C(O)N(c2cc(C(C)(C)F)on2)C(=O)N1C (some centres unmarked)
6. CCO[C@H]1C(O)N(c2cc(C(C)(C)C)on2)C(=O)N1C (single isomer, unassigned) [A2 S-enantiomer, reference compound]

Output:
[5, 1, 5, 0, 5, 1]

Task: Param readout= ECHCG damage score (0-5); system= ECHCG = Echinochloa crus-galli; entry= CO[C@H]1C(O)N(c2cc(C(C)(C)C)on2)C(=O)N1C (stereo partly drawn) [A1 S-enantiomer, reference compound] ; returns value.
Output: 1

###

Test system: LOLPE
Assay: Pre-emergence herbicidal activity, glasshouse pot test
Format: in vivo
Parameters: key: 5=total damage to plant; 0=no damage to plant
Conditions: comparison of enantiomers, 250 g/Ha
readout-label: LOLPE damage score (0-5)

[
  {
    "compound": "COC[C@H]1C(O)N(c2cc(C(C)(C)C)on2)C(=O)N1C (stereo partly drawn) [A4 S-enantiomer, reference compound]",
    "study-system": "LOLPE",
    "LOLPE damage score (0-5)": 0
  },
  {
    "compound": "CO[C@@H]1C(O)N(c2cc(C(C)(C)C)on2)C(=O)N1C (stereo partly drawn)",
    "study-system": "LOLPE",
    "LOLPE damage score (0-5)": 5
  },
  {
    "compound": "CO[C@H]1C(O)N(c2cc(C(C)(C)C)on2)C(=O)N1C (stereo partly drawn) [A1 S-enantiomer, reference compound]",
    "study-system": "LOLPE",
    "LOLPE damage score (0-5)": 0
  },
  {
    "compound": "CCO[C@H]1C(O)N(c2cc(C(C)(C)F)on2)C(=O)N1C (stereo partly drawn) [A5 S-enantiomer, reference compound]",
    "study-system": "LOLPE",
    "LOLPE damage score (0-5)": 0
  },
  {
    "compound": "COC[C@@H]1C(O)N(c2cc(C(C)(C)C)on2)C(=O)N1C (stereo partly drawn)",
    "study-system": "LOLPE",
    "LOLPE damage score (0-5)": 5
  }
]

Let us examine a further case.
Task: Quick one: LOLPE damage score (0-5) for CCO[C@@H]1C(O)N(c2cc(C(C)(C)F)on2)C(=O)N1C (stereo partly drawn) ?
Output: 5

These data points were gathered from patent US20170121319A1.
